Taken from patent US8299048B2.

Below: a set of entries, each annotated with reported Emax.
target: human GR (Homo sapiens, UniProt P04150); assay: Trans-Activation Modulation of Glucocorticoid Receptor (GRAMMER), MMTV-LUC reporter, agonist mode; type: cell-based; design: endogenous in cells; conditions: A549, A549 cells; maximum activity; read-out: Transactivation A549 Cells GRAMMER Emax
Sequence (P04150 whole entry): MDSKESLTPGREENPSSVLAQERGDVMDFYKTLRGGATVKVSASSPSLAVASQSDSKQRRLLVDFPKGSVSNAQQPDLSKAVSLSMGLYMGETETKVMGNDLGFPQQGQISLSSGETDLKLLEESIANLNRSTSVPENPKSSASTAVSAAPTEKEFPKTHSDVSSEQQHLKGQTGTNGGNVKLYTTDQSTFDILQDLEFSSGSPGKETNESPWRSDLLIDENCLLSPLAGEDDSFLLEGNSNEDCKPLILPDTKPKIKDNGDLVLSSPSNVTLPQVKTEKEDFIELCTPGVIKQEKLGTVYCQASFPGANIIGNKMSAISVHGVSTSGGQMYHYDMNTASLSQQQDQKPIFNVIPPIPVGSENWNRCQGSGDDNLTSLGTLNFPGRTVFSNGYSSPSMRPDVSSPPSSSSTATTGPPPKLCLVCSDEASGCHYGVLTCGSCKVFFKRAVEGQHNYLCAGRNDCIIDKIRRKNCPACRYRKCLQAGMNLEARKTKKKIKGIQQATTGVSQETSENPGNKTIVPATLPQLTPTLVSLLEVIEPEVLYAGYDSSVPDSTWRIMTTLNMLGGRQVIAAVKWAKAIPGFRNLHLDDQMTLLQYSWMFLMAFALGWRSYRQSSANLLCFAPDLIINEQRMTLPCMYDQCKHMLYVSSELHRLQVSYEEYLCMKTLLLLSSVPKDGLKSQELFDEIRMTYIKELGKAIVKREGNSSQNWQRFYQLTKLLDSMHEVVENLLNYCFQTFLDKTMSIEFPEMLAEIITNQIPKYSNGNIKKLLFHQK
Write down the numeric answer in % and omit the unit.

>>> value_reported("CCCCCCCCS(=O)(=O)N(CCc1ccccc1F)C[C@H]1CCC2=Cc3c(cnn3-c3ccc(F)cc3)C[C@@]21C [Example 104]")
9.2
>>> value_reported("COC(=O)c1cc(Cl)ccc1CCN(C[C@H]1CCC2=Cc3c(cnn3-c3ccc(F)cc3)C[C@@]21C)S(=O)(=O)CC(F)(F)F [Example 160]")
4.3
>>> value_reported("COC(=O)c1ccccc1S(=O)(=O)N(C[C@H]1CCC2=Cc3c(cnn3-c3ccc(F)cc3)C[C@@]21C)C[C@H](C)O [Example 187]")
35.8

Let us move to another entry and its Emax.
Find the recorded Emax belonging to Cc1noc(C)c1S(=O)(=O)NC[C@H]1CCC2=Cc3c(cnn3-c3ccc(F)cc3)C[C@@]21C [Example 161] and report it.
18.3
